meta.source: patent US11622965B2

- experiment-notes: China Phase I trial of Compound A monotherapy: pharmacokinetics
- Assay type: in vivo, human
- measurement-context: human, plasma, oral, 200 mg, Compound A Plasma Levels, Day 1, 200 mg, 0 h
measure-name: concentration at 0 h (ng/mL)
Supply the numeric figure in ng/mL, leaving out any unit text.

Query: Quote concentration at 0 h reported for C=CC(=O)N1CC[C@@H](n2nc(-c3ccc(Oc4c(F)c(F)cc(F)c4F)cc3F)c3c(N)ncnc32)C1 please.
Response: 0

* * *

- experiment-notes: U.S. Phase Ia trial of Compound A monotherapy: pharmacokinetics
- Assay type: in vivo
- measurement-context: human, plasma, oral, 50 mg, Compound A Plasma Level, Day 1, 50 mg, 0.5 h
measure-name: concentration at 0.5 h (ng/mL)
Supply the numeric figure in ng/mL, leaving out any unit text.

Query: Quote concentration at 0.5 h reported for C=CC(=O)N1CC[C@@H](n2nc(-c3ccc(Oc4c(F)c(F)cc(F)c4F)cc3F)c3c(N)ncnc32)C1 please.
Response: 2.84

* * *

- experiment-notes: U.S. Phase Ia trial of Compound A monotherapy: pharmacokinetics
- Format: in vivo
- measurement-context: human, plasma, oral, 50 mg, Compound A Plasma Level, Day 1, 50 mg, 0 h
measure-name: concentration at 0 h (ng/mL)
Supply the numeric figure in ng/mL, leaving out any unit text.

Query: Quote concentration at 0 h reported for C=CC(=O)N1CC[C@@H](n2nc(-c3ccc(Oc4c(F)c(F)cc(F)c4F)cc3F)c3c(N)ncnc32)C1 please.
Response: 0

* * *

- experiment-notes: China Phase I trial of Compound A monotherapy: pharmacokinetics
- Assay type: in vivo, human
- measurement-context: human, plasma, oral, 100 mg, Compound A Plasma Levels, Day 8, 100 mg, 2 h
measure-name: concentration at 2 h (ng/mL)
Supply the numeric figure in ng/mL, leaving out any unit text.

Query: Quote concentration at 2 h reported for C=CC(=O)N1CC[C@@H](n2nc(-c3ccc(Oc4c(F)c(F)cc(F)c4F)cc3F)c3c(N)ncnc32)C1 [Compound A] please.
Response: 166

* * *

- experiment-notes: China Phase I trial of Compound A monotherapy: pharmacokinetics
- Assay type: in vivo, human
- measurement-context: human, plasma, oral, 400 mg, Compound A Plasma Levels, Day 1, 400 mg, 4 h
measure-name: concentration at 4 h (ng/mL)
Supply the numeric figure in ng/mL, leaving out any unit text.

Query: Quote concentration at 4 h reported for C=CC(=O)N1CC[C@@H](n2nc(-c3ccc(Oc4c(F)c(F)cc(F)c4F)cc3F)c3c(N)ncnc32)C1 please.
Response: 134

* * *

- experiment-notes: China Phase I trial of Compound A monotherapy: pharmacokinetics
- Format: in vivo, human
- measurement-context: human, plasma, oral, 100 mg, Compound A Plasma Levels, Day 1, 100 mg, 0 h
- Procedure: The pharmacokinetics of Compound A was also evaluated. […]
measure-name: concentration at 0 h (ng/mL)
Supply the numeric figure in ng/mL, leaving out any unit text.

Query: Quote concentration at 0 h reported for C=CC(=O)N1CC[C@@H](n2nc(-c3ccc(Oc4c(F)c(F)cc(F)c4F)cc3F)c3c(N)ncnc32)C1 please.
Response: 0

* * *

- experiment-notes: U.S. Phase Ia trial of Compound A monotherapy: pharmacokinetics
- Assay type: in vivo
- measurement-context: human, plasma, oral, 100 mg, Compound A Plasma Level, Day 1, 100 mg, 4 h
measure-name: concentration at 4 h (ng/mL)
Supply the numeric figure in ng/mL, leaving out any unit text.

Query: Quote concentration at 4 h reported for C=CC(=O)N1CC[C@@H](n2nc(-c3ccc(Oc4c(F)c(F)cc(F)c4F)cc3F)c3c(N)ncnc32)C1 please.
Response: 13.3

* * *

- experiment-notes: China Phase I trial of Compound A monotherapy: pharmacokinetics
- Assay type: in vivo, human
- measurement-context: human, plasma, oral, 200 mg, Compound A Plasma Levels, Day 8, 200 mg, 0 h
measure-name: concentration at 0 h (ng/mL)
Supply the numeric figure in ng/mL, leaving out any unit text.

Query: Quote concentration at 0 h reported for C=CC(=O)N1CC[C@@H](n2nc(-c3ccc(Oc4c(F)c(F)cc(F)c4F)cc3F)c3c(N)ncnc32)C1 please.
Response: 3.69

* * *

- experiment-notes: U.S. Phase Ia trial of Compound A monotherapy: pharmacokinetics
- Type: in vivo
- measurement-context: human, plasma, oral, 50 mg, Compound A Plasma Level, Day 1, 50 mg, 24 h
measure-name: concentration at 24 h (ng/mL)
Supply the numeric figure in ng/mL, leaving out any unit text.

Query: Quote concentration at 24 h reported for C=CC(=O)N1CC[C@@H](n2nc(-c3ccc(Oc4c(F)c(F)cc(F)c4F)cc3F)c3c(N)ncnc32)C1 please.
Response: 0

* * *

- experiment-notes: China Phase I trial of Compound A monotherapy: pharmacokinetics
- Type: in vivo, human
- measurement-context: human, plasma, oral, 100 mg, Compound A Plasma Levels, Day 1, 100 mg, 2 h
measure-name: concentration at 2 h
Kindly format the answer as number then unit.

Query: Quote concentration at 2 h reported for C=CC(=O)N1CC[C@@H](n2nc(-c3ccc(Oc4c(F)c(F)cc(F)c4F)cc3F)c3c(N)ncnc32)C1 please.
Response: 0.192 µg/mL

* * *

- experiment-notes: U.S. Phase Ia trial of Compound A monotherapy: pharmacokinetics
- Assay type: in vivo
- measurement-context: human, plasma, oral, 200 mg, Compound A Plasma Level, Day 1, 200 mg, 0 h
measure-name: concentration at 0 h
Kindly format the answer as number then unit.

Query: Quote concentration at 0 h reported for C=CC(=O)N1CC[C@@H](n2nc(-c3ccc(Oc4c(F)c(F)cc(F)c4F)cc3F)c3c(N)ncnc32)C1 [Compound A] please.
Response: 0 ng/mL

* * *

- experiment-notes: U.S. Phase Ia trial of Compound A monotherapy: pharmacokinetics
- Type: in vivo
- measurement-context: human, plasma, oral, 50 mg, Compound A Plasma Level, Day 1, 50 mg, 4 h
measure-name: concentration at 4 h (ng/mL)
Supply the numeric figure in ng/mL, leaving out any unit text.

Query: Quote concentration at 4 h reported for C=CC(=O)N1CC[C@@H](n2nc(-c3ccc(Oc4c(F)c(F)cc(F)c4F)cc3F)c3c(N)ncnc32)C1 please.
Response: 15.3

* * *

- experiment-notes: U.S. Phase Ia trial of Compound A monotherapy: pharmacokinetics
- Assay type: in vivo
- measurement-context: human, plasma, oral, 100 mg, Compound A Plasma Level, Day 1, 100 mg, 0 h
measure-name: concentration at 0 h (ng/mL)
Supply the numeric figure in ng/mL, leaving out any unit text.

Query: Quote concentration at 0 h reported for C=CC(=O)N1CC[C@@H](n2nc(-c3ccc(Oc4c(F)c(F)cc(F)c4F)cc3F)c3c(N)ncnc32)C1 [Compound A] please.
Response: 9.04

* * *

- experiment-notes: China Phase I trial of Compound A monotherapy: pharmacokinetics
- Assay type: in vivo, human
- measurement-context: human, plasma, oral, 200 mg, Compound A Plasma Levels, Day 8, 200 mg, 1 h
measure-name: concentration at 1 h (ng/mL)
Supply the numeric figure in ng/mL, leaving out any unit text.

Query: Quote concentration at 1 h reported for C=CC(=O)N1CC[C@@H](n2nc(-c3ccc(Oc4c(F)c(F)cc(F)c4F)cc3F)c3c(N)ncnc32)C1 please.
Response: 369

* * *

- experiment-notes: China Phase I trial of Compound A monotherapy: pharmacokinetics
- Type: in vivo, human
- measurement-context: human, plasma, oral, 100 mg, Compound A Plasma Levels, Day 1, 100 mg, 6 h
measure-name: concentration at 6 h

Query: Quote concentration at 6 h reported for C=CC(=O)N1CC[C@@H](n2nc(-c3ccc(Oc4c(F)c(F)cc(F)c4F)cc3F)c3c(N)ncnc32)C1 please.
Response: 29.1 ng/mL

* * *

- experiment-notes: U.S. Phase Ia trial of Compound A monotherapy: pharmacokinetics
- Type: in vivo
- measurement-context: human, plasma, oral, 100 mg, Compound A Plasma Level, Day 1, 100 mg, 6 h
measure-name: concentration at 6 h (ng/mL)
Supply the numeric figure in ng/mL, leaving out any unit text.

Query: Quote concentration at 6 h reported for C=CC(=O)N1CC[C@@H](n2nc(-c3ccc(Oc4c(F)c(F)cc(F)c4F)cc3F)c3c(N)ncnc32)C1 please.
Response: 13.3

* * *

- experiment-notes: U.S. Phase Ia trial of Compound A monotherapy: pharmacokinetics
- Type: in vivo
- measurement-context: human, plasma, oral, 50 mg, Compound A Plasma Level, Day 1, 50 mg, 1 h
measure-name: concentration at 1 h (ng/mL)
Supply the numeric figure in ng/mL, leaving out any unit text.

Query: Quote concentration at 1 h reported for C=CC(=O)N1CC[C@@H](n2nc(-c3ccc(Oc4c(F)c(F)cc(F)c4F)cc3F)c3c(N)ncnc32)C1 please.
Response: 26.9

* * *

- experiment-notes: U.S. Phase Ia trial of Compound A monotherapy: pharmacokinetics
- Assay type: in vivo
- measurement-context: human, plasma, oral, 200 mg, Compound A Plasma Level, Day 1, 200 mg, 0.5 h
measure-name: concentration at 0.5 h (µg/mL)
Supply the numeric figure in µg/mL, leaving out any unit text.

Query: Quote concentration at 0.5 h reported for C=CC(=O)N1CC[C@@H](n2nc(-c3ccc(Oc4c(F)c(F)cc(F)c4F)cc3F)c3c(N)ncnc32)C1 [Compound A] please.
Response: 0
